Target: T1, human programmed cell death protein 1 (hPD-1) C93S (aa 24-167) (Homo sapiens, UniProt Q15116, C93S)
T1 construct: made as a fusion with a TEV site and human Fc; the Fc was cut off with TEV protease; source: Expi293F, purified (Protein A, TEV cleavage of Fc, SEC; monomer fractions); not shown: Fc (human), C-terminal, cleaved
T1 sequence (Q15116 24-167 C93S): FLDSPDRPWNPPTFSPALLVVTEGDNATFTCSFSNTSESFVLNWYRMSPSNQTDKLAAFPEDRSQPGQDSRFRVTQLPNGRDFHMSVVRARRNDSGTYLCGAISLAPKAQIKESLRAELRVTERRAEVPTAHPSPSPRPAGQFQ
Experiment: SPR; Carterra LSA; Fab from the ammonium sulfate precipitate of the culture supernatant immobilised on a NiHC200M chip; hPD-1 (1-1024 nM) or mPD-1-Fc (4-1024 nM) as analyte, fourfold dilution series, no regeneration; HBS-EP pH 7.4, 25 °C; medians over the spots of a construct, KD = koff/kon
Conditions: one partner purified
Measurement kind: Kd

Binder	Measurement kind	Measurement
toripalimab Fab L.S28A (Fab, V domains shown, as the heavy chain of Sm3; light chain of Sm3 with this change; numbers count from the chain's first residue; source: Brevibacillus, culture supernatant (ammonium sulfate precipitate); not shown: 6xHis, C-terminal, kept; 6xHN, C-terminal, kept) VH: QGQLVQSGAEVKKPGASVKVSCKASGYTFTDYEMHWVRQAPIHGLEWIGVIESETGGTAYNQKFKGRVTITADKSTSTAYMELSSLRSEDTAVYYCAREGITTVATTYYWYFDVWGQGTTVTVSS VL: DVVMTQSPLSLPVTLGQPASISCRSSQAIVHSNGNTYLEWYLQKPGQSPQLLIYKVSNRFSGVPDRFSGSGSGTDFTLKISRVEAEDVGVYYCFQGSHVPLTFGQGTKLEIK	Kd	< 0.632 nM
toripalimab Fab L.N58A (Fab, V domains shown, as the heavy chain of Sm3; light chain of Sm3 with this change; numbers count from the chain's first residue; source: Brevibacillus, culture supernatant (ammonium sulfate precipitate); not shown: 6xHis, C-terminal, kept; 6xHN, C-terminal, kept) VH: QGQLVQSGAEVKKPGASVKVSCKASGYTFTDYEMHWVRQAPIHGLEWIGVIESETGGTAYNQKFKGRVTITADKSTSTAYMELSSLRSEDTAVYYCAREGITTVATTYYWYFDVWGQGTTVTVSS VL: DVVMTQSPLSLPVTLGQPASISCRSSQSIVHSNGNTYLEWYLQKPGQSPQLLIYKVSARFSGVPDRFSGSGSGTDFTLKISRVEAEDVGVYYCFQGSHVPLTFGQGTKLEIK	Kd	< 1.31 nM
toripalimab Fab H.W110Y (Fab, V domains shown, heavy chain of Sm3 with this change; numbers count from the chain's first residue; as the light chain of Sm3; source: Brevibacillus, culture supernatant (ammonium sulfate precipitate); not shown: 6xHis, C-terminal, kept; 6xHN, C-terminal, kept) VH: QGQLVQSGAEVKKPGASVKVSCKASGYTFTDYEMHWVRQAPIHGLEWIGVIESETGGTAYNQKFKGRVTITADKSTSTAYMELSSLRSEDTAVYYCAREGITTVATTYYYYFDVWGQGTTVTVSS VL: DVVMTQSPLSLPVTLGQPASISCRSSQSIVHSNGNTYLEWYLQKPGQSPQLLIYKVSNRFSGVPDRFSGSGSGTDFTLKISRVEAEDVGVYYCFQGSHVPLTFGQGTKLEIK	Kd	< 1.51 nM

In: Find the measured Kd of toripalimab Fab L.S61Y (Fab, V domains shown, as the heavy chain of Sm3; light chain of Sm3 with this change; numbers count from the chain's first residue; source: Brevibacillus, culture supernatant (ammonium sulfate precipitate); not shown: 6xHis, C-terminal, kept; 6xHN, C-terminal, kept) VH: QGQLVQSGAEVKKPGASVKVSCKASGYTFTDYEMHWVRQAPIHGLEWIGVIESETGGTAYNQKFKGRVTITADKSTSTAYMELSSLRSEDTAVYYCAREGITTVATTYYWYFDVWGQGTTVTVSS VL: DVVMTQSPLSLPVTLGQPASISCRSSQSIVHSNGNTYLEWYLQKPGQSPQLLIYKVSNRFYGVPDRFSGSGSGTDFTLKISRVEAEDVGVYYCFQGSHVPLTFGQGTKLEIK and report it.
Out: < 0.5 nM

In: // Input: toripalimab Fab H.E52A (Fab, V domains shown, heavy chain of Sm3 with this change; numbers count from the chain's first residue; as the light chain of Sm3; source: Brevibacillus, culture supernatant (ammonium sulfate precipitate); not shown: 6xHis, C-terminal, kept; 6xHN, C-terminal, kept) VH: QGQLVQSGAEVKKPGASVKVSCKASGYTFTDYEMHWVRQAPIHGLEWIGVIASETGGTAYNQKFKGRVTITADKSTSTAYMELSSLRSEDTAVYYCAREGITTVATTYYWYFDVWGQGTTVTVSS VL: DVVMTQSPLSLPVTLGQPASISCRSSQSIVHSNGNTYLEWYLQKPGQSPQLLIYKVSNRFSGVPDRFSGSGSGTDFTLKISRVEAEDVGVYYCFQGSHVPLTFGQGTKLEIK . Output its Kd only.
Out: 40.1 nM
